- Tgt: T1, rhesus monkey ERBB3 human Fc tagged recombinant protein (rhesus monkey (Macaca mulatta), UniProt P21860 20-643 (human entry), limits assumed)
- T1 construct: also called rhesus ERBB3-Fc; rhERBB3
- T1 chain: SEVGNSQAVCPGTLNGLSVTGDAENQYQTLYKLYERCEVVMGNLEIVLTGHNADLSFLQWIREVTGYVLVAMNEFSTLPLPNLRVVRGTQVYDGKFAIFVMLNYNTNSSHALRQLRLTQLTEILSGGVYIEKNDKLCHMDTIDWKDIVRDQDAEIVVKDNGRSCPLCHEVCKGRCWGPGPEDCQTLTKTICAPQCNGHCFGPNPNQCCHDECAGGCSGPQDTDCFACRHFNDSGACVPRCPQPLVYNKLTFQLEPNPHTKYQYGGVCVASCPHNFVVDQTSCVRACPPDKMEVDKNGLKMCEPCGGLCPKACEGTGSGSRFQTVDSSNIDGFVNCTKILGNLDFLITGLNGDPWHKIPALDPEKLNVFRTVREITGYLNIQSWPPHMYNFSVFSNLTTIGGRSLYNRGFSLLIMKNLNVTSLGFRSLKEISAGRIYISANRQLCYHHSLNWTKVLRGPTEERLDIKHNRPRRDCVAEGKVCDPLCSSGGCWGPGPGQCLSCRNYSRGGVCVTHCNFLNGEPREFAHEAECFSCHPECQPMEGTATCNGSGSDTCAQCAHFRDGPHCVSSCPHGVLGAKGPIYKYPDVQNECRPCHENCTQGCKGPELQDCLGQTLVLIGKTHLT
- Assay Text: direct binding ELISA on coated rhesus ERBB3-Fc, IgG1 titrated
Measure: binding result

Input line: Reported binding result for 15G11-DI1 IgG1 (antibody, V domains shown, Human IgG1 format, human Ckappa) VH: QVQLVESGGGLVKPGGSLRLSCAASGFTFSDYGMSWVRQAPGKGLEWVSTISDSGSYTYYPDSVKGRFTISRDNAKNSLYLQMNSLRAEDTAVYYCARELGDYDGFDYWGQGTLVTVSS VL: DIQMTQSPSSLSASVGDRVTITCRASQEISSYLSWYQQKPGKAPKLLIYAASSLDTGVPSRFSGSGSGTDFTLTISSLQPEDFATYYCLQYDSTPYTFGGGTKVEIK : what is it?
Output line: binds

Input line: Reported binding result for 15G11-DI4 IgG1 (antibody, V domains shown, Human IgG1 format, human Ckappa) VH: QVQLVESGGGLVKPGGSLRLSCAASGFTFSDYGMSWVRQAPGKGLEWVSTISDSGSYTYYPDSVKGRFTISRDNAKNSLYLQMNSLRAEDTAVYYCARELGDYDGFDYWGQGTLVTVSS VL: DIQMTQSPSSLSASVGDRVTITCRASQEISTYLSWYQQKPGKAPKLLIYAASSLDTGVPSRFSGSGSGTDFTLTISSLQPEDFATYYCLQYDSSPYTFGGGTKVEIK : what is it?
Output line: binds
